Target: T1, His-tagged CEACAM1 (human, UniProt P13688 35-428)
T1 construct: 45 kDa SPR analyte; also called CEACAM1-HIS; CEACAM1 analyte
T1 sequence: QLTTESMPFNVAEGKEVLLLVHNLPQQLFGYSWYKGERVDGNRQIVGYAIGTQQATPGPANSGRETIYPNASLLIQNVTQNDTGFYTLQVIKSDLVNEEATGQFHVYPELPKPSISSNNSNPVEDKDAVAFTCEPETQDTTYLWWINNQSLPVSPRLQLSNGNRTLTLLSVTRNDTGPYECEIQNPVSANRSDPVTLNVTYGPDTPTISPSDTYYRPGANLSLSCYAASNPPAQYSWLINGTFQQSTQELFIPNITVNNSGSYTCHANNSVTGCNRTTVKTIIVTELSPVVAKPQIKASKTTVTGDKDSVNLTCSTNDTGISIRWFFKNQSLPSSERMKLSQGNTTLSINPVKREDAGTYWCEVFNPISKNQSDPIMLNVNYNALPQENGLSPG
Test: SPR single-cycle, supernatant IgG captured
ASSAY_READOUT: koff (s⁻¹)
Express your answer in s⁻¹, writing the number without its unit.

# example entries with known answers
| BINDER | ASSAY_READOUT | REPORTED_MEASUREMENT |
| --- | --- | --- |
| CP08A08/Vκ8 S29A (antibody, IgG4, V domains shown, IgG4 (S241P), kappa) VH: EVQLLESGGGLVQPGGSLRLSCAASGFIFTNHGMSWVRQAPGKGLEWVATISSGGTYTYYPDSVKGRFTISRDNSKNTLYLQMNSLKAEDTAMYYCARHDFDYDAAWFAYWGQGTLVTVSS VL: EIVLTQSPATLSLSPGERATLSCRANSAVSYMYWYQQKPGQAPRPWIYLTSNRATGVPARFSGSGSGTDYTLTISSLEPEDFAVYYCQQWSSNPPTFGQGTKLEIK | koff | 0.073 |
| CP08H03/Vκ8 S29A (antibody, IgG4, V domains shown, IgG4 (S241P), kappa; also called CP08_H03/Parent VL; CP08_H03/Parental) VH: EVQLLESGGGLVQPGGSLRLSCAASGFIFSSHGMSWVRQAPGKGLEWVATISSGGTYTYYPDSVKGRFTISRDNSKNTLYLQMNSLKAEDTAMYYCARHDFDYFPYWFAHWGQGTLVTVSS VL: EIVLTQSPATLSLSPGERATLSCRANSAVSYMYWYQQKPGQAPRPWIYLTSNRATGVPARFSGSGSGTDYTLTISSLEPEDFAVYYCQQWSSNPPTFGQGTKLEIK | koff | 0.0076 |
| CP08A06/Vκ8 S29A (antibody, IgG4, V domains shown, IgG4 (S241P), kappa) VH: EVQLLESGGGLVQPGGSLRLSCAASGYSFSSHGMSWVRQAPGKGLEWVATISSGGTYTYYPDSVKGRFTISRDNSKNTLYLQMNSLKAEDTAMYYCARHDFDYDAAWFAYWGQGTLVTVSS VL: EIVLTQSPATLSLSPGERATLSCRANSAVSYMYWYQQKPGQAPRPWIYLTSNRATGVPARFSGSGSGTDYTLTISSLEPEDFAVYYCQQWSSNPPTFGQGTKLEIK | koff | 0.075 |

Challenge: Tell me measured koff for CP08F07/Vκ8 S29A (antibody, IgG4, V domains shown, IgG4 (S241P), kappa) VH: EVQLLESGGGLVQPGGSLRLSCAASGFTFTDHAISWVRQAPGKGLEWVATISSGGTYTYYPDSVKGRFTISRDNSKNTLYLQMNSLKAEDTAMYYCARHDFDYDAAWFAYWGQGTLVTVSS VL: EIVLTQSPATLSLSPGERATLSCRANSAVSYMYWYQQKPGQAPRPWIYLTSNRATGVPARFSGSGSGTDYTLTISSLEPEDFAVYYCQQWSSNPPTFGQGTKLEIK please.
Response given: 0.081

Challenge: Tell me measured koff for CP08H01/Vκ8 S29A (antibody, IgG4, V domains shown, IgG4 (S241P), kappa) VH: EVQLLESGGGLVQPGGSLRLSCAASGFIFSSHGMSWVRQAPGKGLEWVATISSGGTYTYYPDSVKGRFTISRDNSKNTLYLQMNSLKAEDTAMYYCAKHPPDYFAAWFAYWGQGTLVTVSS VL: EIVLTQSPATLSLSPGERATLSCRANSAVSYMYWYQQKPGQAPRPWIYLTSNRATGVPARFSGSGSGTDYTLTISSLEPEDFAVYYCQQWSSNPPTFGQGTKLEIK please.
Response given: 0.087
